Test system: FMOC24 (patient-derived high-grade serous ovarian cancer cells)
Test: drug sensitivity score (DSS3, normalised partial AUC of % inhibition dose-response) (DSS (score)); higher = more sensitive (stronger inhibition of viability); extreme values may be limits of the assay
Settings: 72 h; library: FO5A; assay format: 2D, 384-well, CellTiter-Glo
measured parameter: drug sensitivity score

molecule: COCCNCc1ccc(-c2cc3nccc(Oc4ccc(NC(=S)NC(=O)Cc5ccc(F)cc5)cc4F)c3s2)nc1
system under test: FMOC24
recorded value: 0.6
//
molecule: N#Cc1ccc(C(c2ccc(C#N)cc2)n2cncn2)cc1
system under test: FMOC24
recorded value: 0
//
molecule: CC1(COc2ccc3c(c2)ncn3-c2ccc3cccc(N4CCC(N)CC4)c3n2)COC1
system under test: FMOC24
recorded value: 9.25
//
molecule: O=C1CN2Cc3c(ccc(Cl)c3Cl)N=C2N1 [Anagrelide]
system under test: FMOC24
recorded value: 0
//
molecule: COc1cccc2c1C(=O)c1c(O)c3c(c(O)c1C2=O)C[C@@](O)(C(=O)CO)C[C@@H]3O[C@H]1C[C@H](N)[C@@H](O)[C@H](C)O1 [Epirubicin]
system under test: FMOC24
recorded value: 4.8
//
molecule: O=C(O)c1ccc(-c2c[nH]c3ncc(-c4ccccc4)cc23)cc1C1CCCC1
system under test: FMOC24
recorded value: 0.65
//
molecule: Cc1nc(NC(=O)N2CCC[C@H]2C(N)=O)sc1-c1ccnc(C(C)(C)C(F)(F)F)c1
system under test: FMOC24
recorded value: 0.35
//
molecule: CCNCCS(=O)(=O)NC[C@@]1(c2ccccc2)SC(NC(=O)C(C)(C)C)=NN1C(=O)C(C)(C)C
system under test: FMOC24
recorded value: 0
//
molecule: COc1ccc(-c2ccc3c(N4CCOC[C@@H]4C)nc(N4CCOC[C@@H]4C)nc3n2)cc1CO
system under test: FMOC24
recorded value: 13.3
//
molecule: CO[C@H](C(=O)[C@@H](O)[C@@H](C)O)[C@@H]1Cc2cc3cc(O[C@H]4C[C@@H](O[C@@H]5C[C@@H](O)[C@H](O)[C@@H](C)O5)[C@H](O)[C@@H](C)O4)c(C)c(O)c3c(O)c2C(=O)[C@H]1O[C@H]1C[C@@H](O[C@@H]2C[C@@H](O)[C@@H](O[C@@H]3C[C@](C)(O)[C@H](O)[C@@H](C)O3)[C@@H](C)O2)[C@H](O)[C@@H](C)O1
system under test: FMOC24
recorded value: 9
//
molecule: CO[C@H]1C[C@@H]2CC[C@@H](C)[C@@](O)(O2)C(=O)C(=O)N2CCCC[C@H]2C(=O)O[C@H]([C@H](C)C[C@@H]2CC[C@@H](O)[C@H](OC)C2)CC(=O)[C@H](C)/C=C(\C)[C@@H](O)[C@@H](OC)C(=O)[C@H](C)C[C@H](C)/C=C/C=C/C=C/1C
system under test: FMOC24
recorded value: 6.1
//
molecule: O=C(/C=C\n1cnc(-c2cc(C(F)(F)F)cc(C(F)(F)F)c2)n1)NNc1cnccn1 [Selinexor]
system under test: FMOC24
recorded value: 21.5
//
molecule: C[C@@H]1CN(C(=O)c2ccc(NC(=O)c3cc(O[C@H](C)c4c(Cl)ccc(F)c4Cl)c(N)nn3)cc2)C[C@H](C)N1
system under test: FMOC24
recorded value: 0.7
//
molecule: C=CC[C@@H]1/C=C(\C)C[C@H](C)C[C@H](OC)[C@H]2O[C@@](O)(C(=O)C(=O)N3CCCC[C@H]3C(=O)O[C@H](/C(C)=C/[C@@H]3CC[C@@H](O)[C@H](OC)C3)[C@H](C)[C@@H](O)CC1=O)[C@H](C)C[C@@H]2OC
system under test: FMOC24
recorded value: 5
//
molecule: C[C@@H](C(=O)O)c1ccc(-c2ccccc2)c(F)c1
system under test: FMOC24
recorded value: 1.05
//
molecule: COc1cc2nccc(Oc3ccc(NC(=O)NC4CC4)c(Cl)c3)c2cc1C(N)=O
system under test: FMOC24
recorded value: 0
//
molecule: CCn1cc(-c2ccnc3[nH]c(-c4cccc(CN(C)C)c4)cc23)c(-c2ccc(NC(=O)N(C)C)cc2)n1
system under test: FMOC24
recorded value: 0.55
//
molecule: CC[C@@H](C(=O)[C@@H](C)[C@@H](O)[C@H](C)[C@@H]1O[C@@H]([C@@H](CC)C(=O)O)CC[C@@H]1C)[C@H]1O[C@]2(C=C[C@@H](O)[C@]3(CC[C@@](C)([C@H]4CC[C@](O)(CC)[C@H](C)O4)O3)O2)[C@H](C)C[C@@H]1C
system under test: FMOC24
recorded value: 26.1
//
molecule: COc1cc([C@@H]2c3cc4c(cc3[C@@H](O[C@@H]3O[C@@H]5CO[C@@H](c6cccs6)O[C@H]5[C@H](O)[C@H]3O)[C@H]3COC(=O)[C@H]23)OCO4)cc(OC)c1O [Teniposide]
system under test: FMOC24
recorded value: 2.75
//
molecule: Nc1nc2cc(-c3ccc4ncc(C(=O)N5CCOCC5)n4c3)ccc2o1
system under test: FMOC24
recorded value: 0
//
molecule: CC[C@@H]1C(=O)OC[C@@H]1Cc1cncn1C
system under test: FMOC24
recorded value: 2.65
//
molecule: COc1ccc(COc2cc3oc(=O)c4cc(C(C)O)ccc4c3cc2OC)cc1 (stereo unspecified)
system under test: FMOC24
recorded value: 0
//
molecule: Nc1ncn([C@@H]2O[C@H](CO)[C@@H](O)[C@H]2O)c(=O)n1
system under test: FMOC24
recorded value: 14.2
//
molecule: NC(=O)c1cccc2cn(-c3ccc([C@@H]4CCCNC4)cc3)nc12
system under test: FMOC24
recorded value: 5.55
//
molecule: N#CC1(c2ccc(NC(=O)c3cccnc3NCc3ccncc3)cc2)CCCC1
system under test: FMOC24
recorded value: 0.1
//
molecule: CNC(=O)c1cc(Oc2ccc(NC(=O)Nc3ccc(Cl)c(C(F)(F)F)c3)cc2)ccn1
system under test: FMOC24
recorded value: 0
